System: MS2 coat protein
Assay: apparent Kd, MS2 coat protein; higher = weaker binding; RNA-MaP array; FMN 200 µM where present
Details: designed as: OFF switch for flavin mononucleotide; no ligand
Returns fulfilled if the recorded apparent Kd is greater than or equal to 30 nM, and not fulfilled otherwise.

- Sequence code: "UGGUUUAGUGUUAGGAUAUAAUCCGAAGUCAGCGAUUAGAAGGAACAUGAGGAUCACCCAUGUUUUAGAUAACC"
  Group: "not fulfilled"
- Sequence code: "UGGACCGAGCUGUCGGUUGACUCGAAGGAUAUGACAUGAGGAUCACCCAUGUGGGAUCUAAAUUGUCAGAAGGUUGGUUCUGGG"
  Group: "fulfilled"
- Sequence code: "CCUCGACAUGAGGAUCACCCAUGUCAGGAUAUUGUGUCUCGGGUUUUUUACCGUUAGGCAAGAAGGGAUGUGUG"
  Group: "not fulfilled"
- Sequence code: "CGUAUGAUGUCAGGAUAUGACGCUGAGAGCACGUCAGAAGGGACAUGAGGAUCACCCAUGUUGGGCUAAUGAAGCUAUGGCACU"
  Group: "not fulfilled"
- Sequence code: "AAAAAGUCAGGAUAUAUCAAAAAAAAAGAAAAAAAAAAAAGAUAGAAGGGACAUGAGGAUCACCCAUGUAAAAA"
  Group: "fulfilled"
- Sequence code: "UUAAGGGACUGAGGAUAUACAUGAAUUAUGUUUGUAGAAGGCAGAUUGUUAGUUUAUUCACUAUACAUGAGGAUCACCCAUGUU"
  Group: "not fulfilled"
- Sequence code: "CGUAUGUCAGGAUAUGCGUAAGCCGGUCAGGGCGAGCGGCAGCAGAAGGGACAUGAGGAUCACCCAUGUUCGGG"
  Group: "fulfilled"
- Sequence code: "GUGGUAUUCGUAGGAUAUCCGUCGCCACCGUGUGGAGAAGGACGAACAUGAGGAUCACCCAUGUAUCAUGGUGUGGGCGUUGUC"
  Group: "fulfilled"
- Sequence code: "GAUUAACAUGAGGAUCACCCAUGUGAGGAUAUGGACUGGCUCACUUUCCGAUUCCCGUCUAGAAGGCGCAUCUU"
  Group: "fulfilled"
- Sequence code: "AAAGAGUCAGGAUAUUCGUAUAGAGUAGCGCGACUCUAUACGAAGAAGGGACAUGAGGAUCACCCAUGUAAAAA"
  Group: "not fulfilled"
- Sequence code: "UUGCAGUCAUCAGGAUAUAGUAUUACGGCCAUUUAUAUUUUCAUACAUGAGGAUCACCCAUGUCGCUAGAAGGGAUUAUCGAUU"
  Group: "fulfilled"
- Sequence code: "UUUUAACAUGAGGAUCACCCAUGUGAGGAUAUCGAAAUUUAUAUUAAUAUUAUUUAAACGAGAAGGCACAUUUU"
  Group: "fulfilled"
- Sequence code: "UCUUAUCUAGGAUAUCCACCUCCUCACAUGAGGAUCACCCAUGUGCAGAACAACGGUCUCGGAGAAGGAGGUAUUG"
  Group: "not fulfilled"
- Sequence code: "UUUCUGUGAGGAUAUCAGUAGUAAAUAAAUAAAAUUACUACUGAGAAGGCACAUGAGGAUCACCCAUGUUCCUU"
  Group: "not fulfilled"
- Sequence code: "UACAGCCGCAUCCCAUCGCUGGAAGAGGAUAUACAUCAUCGCGCACUCACAUGAGGAUCACCCAUGUAGAAGGCUUCCUGGCGG"
  Group: "not fulfilled"
- Sequence code: "UAGUAUAAGGGCAUUACACAUGAGGAUCACCCAUGUACGUUAGAGGAUAUGCAUUACAGUUGAAAGUAGAAGGUUAGAGAAGGG"
  Group: "fulfilled"
- Sequence code: "UAUAAGUCUCAUGUAACAUGAGGAUCACCCAUGUCAUAUUGUAGAAGGAUGAUAAUAUGUAUAUCAUAGGAUAUACUAUAUGUU"
  Group: "not fulfilled"
- Sequence code: "UAUUAGUAAGGAUAUCCUUGCAUGGACGAAAGUCCAUGCAAGGAGAAGGUACAUGAGGAUCACCCAUGUUCAUU"
  Group: "not fulfilled"
- Sequence code: "AAACAUGUCCGAGGAUAUCUGGAAACAUUUUCAAGAGAAGGCGGACAUGAGGAUCACCCAUGUCUCUCCUCAUCAAGUCCAAGU"
  Group: "not fulfilled"
- Sequence code: "UAGAAGUCAGGAUAUCCAGCUCGUCACUUGCGUGAUGAGUUGGAGAAGGGACAUGAGGAUCACCCAUGUAAAGA"
  Group: "fulfilled"
- Sequence code: "AUCAGCUCGUCAGGAUAUACGUCACUGCUUCGGCAGUGUGGUAAGAUCACAUGAGGAUCACCCAUGUAGAAGGGACGAGCUGAU"
  Group: "fulfilled"
- Sequence code: "GCAGACGUAGUGAGGAUAUGCUCUACCUCGGUAGAGCAGAAGGCACAUGAGGAUCACCCAUGUGAUUUCUCUGC"
  Group: "fulfilled"
- Sequence code: "GUCUUCCUAGGAUAUACAUGAGGAUCACCCAUGUAAAGUUUCGUCAAAGGAUAAUCGAGUAGAAGGAGGUGGAU"
  Group: "not fulfilled"
- Sequence code: "CGUUGUGAAGAGGAUAUCCAACAAAGUUGUCAAGGAGAAGGCUUCACAUGAGGAUCACCCAUGUUAUGCCUUAU"
  Group: "not fulfilled"
- Sequence code: "GUGUACAGAGGAUAUACAUAAGCUAGGAAACUAGCUACUUCACAUGAGGAUCACCCAUGUAGAAGGCUGUACAC"
  Group: "not fulfilled"
- Sequence code: "GGUCGCAAGUAAGGAUAUGCCUAGGAAACCUAGGCAGAAGGUACAUGAGGAUCACCCAUGUUAACGCAAAGCGAAUAAGCGACC"
  Group: "not fulfilled"
- Sequence code: "AAACCGCAAGGAUAUUGUGGCGCUGACAUGAGGAUCACCCAUGUGGUGCUAGUCCCGCUGCGAGAAGGUGUGUAAA"
  Group: "not fulfilled"
- Sequence code: "UAUAUAUAGUAAGGAUAUGUAAUAAUUUUAUAAACAGAAGGUACUGACAUGAGGAUCACCCAUGUUUUAGUGUGGGCAUGUAGA"
  Group: "fulfilled"
- Sequence code: "CUUUUGUGAGGAUAUCAGUAGUAAAAUAAUAAAAUAACUACUGAGAAGGCACAUGAGGAUCACCCAUGUUCCUC"
  Group: "fulfilled"
- Sequence code: "AAAAAACAUGAGGAUCACCCAUGUGAGGAUAUCCAAAAGUCAAAGAAAAAGACGAAAAGGAGAAGGCACAAAAA"
  Group: "fulfilled"
